Target System: T1, TNFRSF25-Fc fusion protein (UniProt Q93038 25-199, limits assumed, biotinylated in the capture ELISA (site not stated))
T1 construct: also called TNFRSF25-Fc protein; biotinylated antigen protein; not shown: Fc part
T1 sequence (looked up): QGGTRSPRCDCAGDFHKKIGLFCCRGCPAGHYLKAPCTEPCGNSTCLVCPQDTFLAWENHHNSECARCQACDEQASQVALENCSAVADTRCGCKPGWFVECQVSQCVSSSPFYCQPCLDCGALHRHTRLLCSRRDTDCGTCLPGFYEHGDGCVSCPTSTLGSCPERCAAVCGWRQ
Method Description: binding ELISA of scFv clones on TNFRSF25-Fc (FIG. 10)
Reported Property: Bmax
The answer should be written as a number, with no unit following it.

Examples with their reported Bmax follow.
1. 42G2 (scFv, V domains shown, scFv) VH: EVQLVESGGGLSQPGNSLQLSCEASGFTFSNHDLNWVRQAPGKGLEWVAYISSASGLISYADAVRGRFTISRDNAKNSLFLQMNNLKSEDTAMYYCARDPPYSGLYALDFWGQGTQVTVSS VL: QPVLTQSPSASASLSGSVKLTCTLSSELSWYTIVWYQQRPDKAPKYVMYLKSDGSHSKGDGIPDRFSGSSSGAHRYLSISNVQSEDDATYFCGAGYTLAGQYGWVFGSGTKVTVL    0.447
2. 6G11 (scFv, V domains shown, scFv; Frameworks and unchanged CDRs are those of the parental clone) VH: EVQLVESGGGLSQPGNSLQLSCEASGFTFSNHDLNWVRQAPGKGLEWVAYISSASGLISYADAVRGRFTISRDNAKNSLFLQMNNLKSEDTAMYYCARDPPYSGLYALDFWGQGTQVTVSS VL: QPVLTQSPSASASLSGSVKLTCTLSSELSNFTIVWYQQRPDKAPKYVMYLKSDGSHSKGDGIPDRFSGSSSGAHRYLSISNVQSEDDATYFCGAGYTLAGQYGWVFGSGTKVTVL    1.32

Consider the record given below.
Enquiry: Entry under review: 5A6 (scFv, V domains shown, scFv; Frameworks and unchanged CDRs are those of the parental clone) VH: EVQLVESGGGLSQPGNSLQLSCEASGFTFSNHDLNWVRQAPGKGLEWVAYISSASGLISYADAVRGRFTISRDNAKNSLFLQMNNLKSEDTAMYYCARDPPYTGLYALDFWGQGTQVTVSS VL: QPVLTQSPSASASLSGSVKLTCTLSSELSNFTIVWYQQRPDKAPKYVMYLKSDGSHSKGDGIPDRFSGSSSGAHRYLSISNVQSEDDATYFCGAGYTLANQYGWVFGSGTKVTVL . Reported Bmax?
Return: 1.89
